Where do these numbers come from? They come from a melting point compilation (Tetko et al.).

Task for the reader: assign each of the following compounds its reported melting point.

Lookup: Name the recorded melting point for OC(CN1CCCC1)C(F)(F)F (stereo not drawn) .
Found: 78 to 80 °C

Lookup: Name the recorded melting point for "O=C(O)c1cccc(OCc2cccs2)c1" .
Found: 147 to 149 °C

Lookup: Name the recorded melting point for "Cc1cc(=O)n(CC(=O)NC(C)C)c(C)c1C(=O)O" .
Found: 229 to 231 °C

====

Task for the reader: assign each of the following compounds its reported melting point.

Lookup: Name the recorded melting point for O=C(O)C(S)c1ccccc1 (centres undefined) .
Found: 58 to 60 °C

Lookup: Name the recorded melting point for "OCc1cn(-c2ccccc2)nc1-c1cccs1" .
Found: 115 to 117 °C

Lookup: Name the recorded melting point for "Nc1noc(C2CC2)n1" .
Found: 84 to 86 °C

Lookup: Name the recorded melting point for "CCOc1ccccc1S(N)(=O)=O" .
Found: 154 to 156 °C

Lookup: Name the recorded melting point for "O=C(CCl)NCC(=O)Nc1ccccc1Br" .
Found: 218 to 220 °C

Lookup: Name the recorded melting point for "NCc1cc(Br)c[nH]1" .
Found: 105 to 107 °C

Lookup: Name the recorded melting point for "O=C1CCC(=O)N1CCBr" .
Found: 53 to 55 °C

Lookup: Name the recorded melting point for O=C1CCCC(C(=O)O)N1 (centres undefined) .
Found: 94 to 96 °C

Lookup: Name the recorded melting point for "CC(C)(CC(=O)c1ccc(Cl)cc1)C(=O)O" .
Found: 147 to 149 °C

Lookup: Name the recorded melting point for "O=C(O)CSc1nc2ccccc2o1" .
Found: 158 to 160 °C

Lookup: Name the recorded melting point for "CNS(=O)(=O)c1ccc(CCC(=O)O)cc1" .
Found: 188 to 190 °C

Lookup: Name the recorded melting point for "O=Cc1c[nH]nc1-c1ccc2c(c1)OCO2" .
Found: 188 to 190 °C

Lookup: Name the recorded melting point for NC1CCN(c2ccc(Cl)c(Cl)c2)C1=O (centres undefined) .
Found: 104 to 106 °C

Lookup: Name the recorded melting point for COc1ccc(OC)c(C(C)NC(=O)C(C)Cl)c1 (centres undefined) .
Found: 96 to 98 °C

Lookup: Name the recorded melting point for "COCc1cc(C(=O)O)no1" .
Found: 85 to 87 °C

Lookup: Name the recorded melting point for OCC1CN(Cc2ccccc2)CC1CO (centres undefined) .
Found: 94 to 96 °C

Lookup: Name the recorded melting point for "Cc1cc(C(=O)O)nn1-c1cccc(C#N)c1" .
Found: 249 to 251 °C

Lookup: Name the recorded melting point for CC1(c2ccco2)NC(=O)NC1=O (centres undefined) .
Found: 179 to 181 °C

Lookup: Name the recorded melting point for "COc1c(C(=O)O)sc(C)c1Br" .
Found: 165 to 167 °C

====

measured.metric: melting point

Lookup: Name the recorded melting point for "CC(=O)Nc1cccc(CN)c1" .
Found: 82 to 84 °C

Lookup: Name the recorded melting point for "Nc1ccc(Cl)cc1C(=O)N1CCCC1" .
Found: 139 to 141 °C

Lookup: Name the recorded melting point for "Cc1c(N)cccc1N1C(=O)CCC1=O" .
Found: 182 to 184 °C

Lookup: Name the recorded melting point for "N#Cc1cccc(OCC(F)(F)F)n1" .
Found: 51 to 53 °C

Lookup: Name the recorded melting point for "Nc1nc2c(s1)COCC2" .
Found: 144 to 146 °C

Lookup: Name the recorded melting point for "O=c1[nH]ccc2occc12" .
Found: 193 to 195 °C

Lookup: Name the recorded melting point for "Cn1c(-c2ccccc2)cnc1SCC(=O)O" .
Found: 199 to 201 °C

Lookup: Name the recorded melting point for "Cc1cc(=O)c(C(=O)O)nn1-c1ccccc1[N+](=O)[O-]" .
Found: 240 to 242 °C

Lookup: Name the recorded melting point for "O=C(O)c1sccc1SC(F)F" .
Found: 117 to 119 °C

Lookup: Name the recorded melting point for "COC(=O)c1cc(CBr)on1" .
Found: 59 to 61 °C

Lookup: Name the recorded melting point for "CNC(=S)NC1CC1" .
Found: 108 to 110 °C

Lookup: Name the recorded melting point for CC(C)C(C)(C#N)NC(=O)CCl (stereo not drawn) .
Found: 71 to 73 °C

Lookup: Name the recorded melting point for "Cc1ncsc1NC(=O)OC(C)(C)C" .
Found: 136 to 138 °C

Lookup: Name the recorded melting point for "CCCS(=O)(=O)Nc1cc(N)c(F)cc1F" .
Found: 95 to 97 °C

Lookup: Name the recorded melting point for CC1CCc2c(sc(N)c2C(N)=O)C1 (stereo not drawn) .
Found: 188 to 190 °C

Lookup: Name the recorded melting point for "O=C(Nc1cccc(Br)c1)c1ccccc1" .
Found: 136 to 138 °C

Lookup: Name the recorded melting point for "O=C(c1cnc(Cl)c(Cl)c1)N1CCOCC1" .
Found: 78 to 80 °C

Lookup: Name the recorded melting point for "O=c1[nH]c(-c2ccccc2F)cs1" .
Found: 187 to 189 °C
